Parameter: melting point. Scope: all listed entries.

Example entries begin here.
Look at this compound and give its reported melting point. CC(O)c1ccc(C(O)C(C)(C)C)cc1 (stereo not given) 118 to 121 °C

Same again, this time with `N#Cc1cc([N+](=O)[O-])ccc1NCCCn1ccnc1` 177 °C

Same again, this time with `COc1cc(C)c(S(=O)(=O)NC(=S)Nc2nc(-c3ccc(C4CCCCC4)cc3)c(C)s2)c(C)c1` 177 to 178 °C

***
Look at this compound and give its reported melting point. COc1ccc(C(Cl)C(C)(C)[N+](=O)[O-])cc1 (stereo not given) 40 to 41 °C

Same again, this time with `CN1CCN(c2ccc(CCCC(=O)N3CCC(c4ccc(Cl)cc4)CC3)cc2)CC1` 119 to 120 °C
